B1: PCMTD2 (parent)
chain: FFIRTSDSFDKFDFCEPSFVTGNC

# Variants of: B1
# TEST_DESCRIPTION: protein stability index of a GFP-peptide fusion (GPS, HEK-293T) (PSI 1-6); higher = more stable;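 also: lentivirally expressed fusions sorted by FACS into six bins by GFP to DsRed ratio, PSI derived from sequencing read proportions per bin multiplied by bin number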
# STUDY_CONDITIONS: c terminus: a fixed tail appended
PROPERTY_MEASURED: protein stability index
Please reply with the number alone, leaving off any unit.

1) FFIRTSDSFDKFDFCENSFVTGNC [P17N] | 2.05
2) FFNRTSDSFDKFDFCEPSFVTGNC [I3N] | 1.98

Proceed to the following item.
Query: Would you mind telling me what protein stability index value was observed for FFIRTSDSFDKFDFCFPSFVTGNC [E16F] ?
Reply: 2.04
